Target of assay: human ether-à-go-go-related gene (hERG) potassium channel (human);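 note: peak tail current of the secondary pulse compared with the same well before compound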
Protocol summary: primary screen, population patch clamp on CHO cells stably expressing hERG; higher = less effect of the substance
Out of some 310,000 compounds screened, about 14,000 (4.5%) showed an effect of 50% or more. The effect is printed as a negative number. The sample as a whole holds a higher share of strong results than the screen did.
Reported metric: hERG current change (%, negative = inhibition) at 10uM (%)
Please reply with the bare figure in % and do not write the unit itself.

Solved entries:
• O=C(NCCCn1ccnc1)c1ccc(-c2ccccc2)cc1 = -21.6
• COc1cccc(CNC(=O)C2CSC3(C)CCC(=O)N23)c1 (stereo not drawn) = 6.82
• C=CCn1c(=O)/c(=C/c2ccc(Cl)cc2)s/c1=C(/C#N)c1nnc2n1CCCCC2 = -43

Note to self: hERG current change (%, negative = inhibition) at 10uM recorded for Br.C=CCN1C(c2ccccc2)=CS/C1=C(\C#N)c1nnc2n1CCCCC2 was -59.2

Note to self: hERG current change (%, negative = inhibition) at 10uM recorded for C=CCOc1cccc(C2NC(=O)c3ccccc3O2)c1 (stereo not drawn) was 21.4

Note to self: hERG current change (%, negative = inhibition) at 10uM recorded for N#Cc1nc(-c2ccco2)oc1NCCCN1CCOCC1 was -54.9

Note to self: hERG current change (%, negative = inhibition) at 10uM recorded for Cc1noc(C)c1COC(=O)C1COc2ccccc2O1 (stereo not drawn) was 15.2

* * *

Target of assay: human ether-à-go-go-related gene (hERG) potassium channel (human);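 note: peak tail current of the secondary pulse compared with the same well before compound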
Protocol summary: primary screen, population patch clamp on CHO cells stably expressing hERG; higher = less effect of the substance
Hit rate of the full screen: of about 310,000 compounds, about 14,000 (4.5%) showed an effect of 50% or more. Effects have a minus sign here. This excerpt belongs to a sample that is enriched for strong results.
Given measured hERG current change (%, negative = inhibition) at 10uM, output t if it is greater than or equal to -50% and f if not.

• O=C(CCCn1c(=O)[nH]c2cc(Cl)ccc2c1=O)NCCN1CCN(c2ccccc2)CC1 = t

hey, is hERG current change (%, negative = inhibition) at 10uM for this one >= -50%? O=C(CCCn1c(=O)[nH]c2cc(Cl)ccc2c1=O)NCCCN1CCCC1
t

hey, is hERG current change (%, negative = inhibition) at 10uM for this one >= -50%? CCNC(=S)N(CCc1c(C)[nH]c2ccc(F)cc12)Cc1cccnc1
t

* * *

Target of assay: human ether-à-go-go-related gene (hERG) potassium channel (human, UniProt Q12809);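 note: peak tail current of the secondary pulse compared with the same well before compound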
Sequence (Q12809 whole entry, looked up): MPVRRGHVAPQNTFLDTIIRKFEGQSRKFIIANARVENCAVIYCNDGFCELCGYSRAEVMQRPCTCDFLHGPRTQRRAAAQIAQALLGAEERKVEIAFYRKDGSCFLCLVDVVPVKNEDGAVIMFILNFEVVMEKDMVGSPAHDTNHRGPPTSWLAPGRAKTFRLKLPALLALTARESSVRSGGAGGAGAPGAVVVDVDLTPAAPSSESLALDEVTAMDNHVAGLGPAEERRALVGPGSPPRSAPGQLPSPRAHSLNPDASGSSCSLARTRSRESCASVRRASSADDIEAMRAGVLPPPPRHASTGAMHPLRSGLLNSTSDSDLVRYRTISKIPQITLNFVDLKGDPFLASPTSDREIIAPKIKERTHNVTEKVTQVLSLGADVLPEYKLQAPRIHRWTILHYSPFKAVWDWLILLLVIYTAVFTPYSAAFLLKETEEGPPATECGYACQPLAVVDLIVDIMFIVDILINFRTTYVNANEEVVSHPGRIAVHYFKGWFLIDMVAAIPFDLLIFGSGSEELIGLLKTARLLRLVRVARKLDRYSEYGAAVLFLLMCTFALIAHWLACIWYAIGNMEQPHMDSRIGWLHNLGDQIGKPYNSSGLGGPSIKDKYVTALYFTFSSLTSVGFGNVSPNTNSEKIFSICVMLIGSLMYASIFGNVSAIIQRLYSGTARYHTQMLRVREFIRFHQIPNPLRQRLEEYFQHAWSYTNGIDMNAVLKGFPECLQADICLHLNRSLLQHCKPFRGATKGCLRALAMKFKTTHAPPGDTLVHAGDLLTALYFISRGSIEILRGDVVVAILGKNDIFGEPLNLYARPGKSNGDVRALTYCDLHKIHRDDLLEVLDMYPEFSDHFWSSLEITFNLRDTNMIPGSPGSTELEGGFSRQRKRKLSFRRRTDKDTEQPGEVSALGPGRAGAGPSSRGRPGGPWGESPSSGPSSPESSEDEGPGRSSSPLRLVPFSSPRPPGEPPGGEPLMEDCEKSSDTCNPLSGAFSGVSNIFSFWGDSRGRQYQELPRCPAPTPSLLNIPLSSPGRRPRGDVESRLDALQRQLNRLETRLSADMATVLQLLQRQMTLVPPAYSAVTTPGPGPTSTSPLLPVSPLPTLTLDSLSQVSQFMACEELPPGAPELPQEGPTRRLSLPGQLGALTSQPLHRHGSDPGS
Protocol summary: primary screen, population patch clamp on CHO cells stably expressing hERG; higher = less effect of the substance
The whole screen tested about 310,000 compounds, of which about 14,000 (4.5%) showed an effect of 50% or more. Effects have a minus sign here. The full list was thinned out, with strong results kept by preference.
Reported metric: hERG current change (%, negative = inhibition) at 10uM

Solved entries:
* COc1cc([C@@H]2C[C@H]3CN(c4ccccc4)C(=O)[C@]34CCCN24)cc(OC)c1OC | -32%
* Cc1ccc(C(=O)OCC(=O)N(C)c2ccccc2)cc1C | -9.59%
* CCN(CC)c1ncnc2sc(C(=O)N3CCN(c4ccc(OC)cc4)CC3)c(C)c12 | -41.5%

Record Cc1c(C(=O)N2CCN(c3ccccn3)CC2)sc2ncnc(N3CCOCC3)c12 ; system human ether-à-go-go-related gene (hERG) potassium channel (human, UniProt Q12809); hERG current change (%, negative = inhibition) at 10uM = -59%

Record COC(=O)CSc1nnc(-c2ccoc2C)n1-c1ccc(C)cc1 ; system human ether-à-go-go-related gene (hERG) potassium channel (human, UniProt Q12809); hERG current change (%, negative = inhibition) at 10uM = -37%

Record Cc1c(C(=O)N2CCN(c3ccc(F)cc3)CC2)sc2ncnc(N3CCN(c4ccccn4)CC3)c12 ; system human ether-à-go-go-related gene (hERG) potassium channel (human, UniProt Q12809); hERG current change (%, negative = inhibition) at 10uM = -65.1%

Record C#C[C@]1(O)CC[C@H]2[C@@H]3CCC4=Cc5nc6nc7ccccc7n6cc5C[C@]4(C)[C@H]3CC[C@@]21C ; system human ether-à-go-go-related gene (hERG) potassium channel (human, UniProt Q12809); hERG current change (%, negative = inhibition) at 10uM = -56.8%

Record CCN(CC)c1ncnc2sc(C(=O)N3CCN(c4ccccc4)CC3)c(C)c12 ; system human ether-à-go-go-related gene (hERG) potassium channel (human, UniProt Q12809); hERG current change (%, negative = inhibition) at 10uM = -50.2%

Record COc1ccccc1-n1cc([C@@H]2C[C@H]3CN(c4ccccc4)C(=O)[C@]34CCCN24)cn1 ; system human ether-à-go-go-related gene (hERG) potassium channel (human, UniProt Q12809); hERG current change (%, negative = inhibition) at 10uM = -17.1%

Record Cc1cc(C(=O)NC(=S)Nc2cccc(NC(=O)C(C)C)c2)ccc1[N+](=O)[O-] ; system human ether-à-go-go-related gene (hERG) potassium channel (human, UniProt Q12809); hERG current change (%, negative = inhibition) at 10uM = 3.95%

Record CC(=O)Nc1cc(-c2nn(CC(=O)N3CCCCC3)c(=O)c3ccccc23)ccc1N1CCOCC1 ; system human ether-à-go-go-related gene (hERG) potassium channel (human, UniProt Q12809); hERG current change (%, negative = inhibition) at 10uM = 2.8%

Record Nn1c(SCC(=O)NCC2CCCO2)nnc1-c1ccc(OC(F)F)cc1 (stereo not shown) ; system human ether-à-go-go-related gene (hERG) potassium channel (human, UniProt Q12809); hERG current change (%, negative = inhibition) at 10uM = -68.5%

Record CC(C)NC(=O)C(=O)NCCN1CCN(C(=O)c2ccc(C(C)(C)C)cc2)CC1 ; system human ether-à-go-go-related gene (hERG) potassium channel (human, UniProt Q12809); hERG current change (%, negative = inhibition) at 10uM = -3.01%

Record Cc1nnc(SCC(=O)NCc2cccs2)n1-c1ccccc1 ; system human ether-à-go-go-related gene (hERG) potassium channel (human, UniProt Q12809); hERG current change (%, negative = inhibition) at 10uM = 1.68%

Record Cc1c(C(=O)N2CCN(Cc3ccc4c(c3)OCO4)CC2)sc2ncnc(N3CCN(c4ccccc4)CC3)c12 ; system human ether-à-go-go-related gene (hERG) potassium channel (human, UniProt Q12809); hERG current change (%, negative = inhibition) at 10uM = 7.82%

Record CCN1C(=O)CC(N2CCN(c3cccc(OC)c3)CC2)C1=O (stereo not shown) ; system human ether-à-go-go-related gene (hERG) potassium channel (human, UniProt Q12809); hERG current change (%, negative = inhibition) at 10uM = 14.1%

Record Cc1c(C(=O)N2CCN(c3ccccn3)CC2)sc2ncnc(N3CCN(c4ccccc4)CC3)c12 ; system human ether-à-go-go-related gene (hERG) potassium channel (human, UniProt Q12809); hERG current change (%, negative = inhibition) at 10uM = -32.8%

Record COc1cc(OC)cc(C(=O)NCC2CCCN(Cc3ccc(SC)cc3)C2)c1 (stereo not shown) ; system human ether-à-go-go-related gene (hERG) potassium channel (human, UniProt Q12809); hERG current change (%, negative = inhibition) at 10uM = -72.3%
